# System: Plasmodium berghei
# run description: Screen against P. berghei liver stage (PbLuc), transformed with Luciferase, at 10uM
# Format: functional, HepG2
# experimental parameters: tested at 10 uM
The whole screen tested about 69,000 compounds, of which about 8,600 (12%) showed an effect of 50% or more. Shown is part of a subset that was picked to be rich in strong results.
Answer 0 (no) if INHIBITION is under 20%, and 1 (yes) if it is 20% or more.

{"compound": "CCOCCCNC(=O)C1(C)CCC(=O)N1c1ccccc1F (stereo unspecified)", "assay target": "Plasmodium berghei", "class": "1 (yes)"}
{"compound": "CCC(NC1CCN(C(=O)c2ccccc2)CC1)c1cccs1 (stereo unspecified)", "assay target": "Plasmodium berghei", "class": "0 (no)"}
{"compound": "COCCN1CCOCC12CCN(C(=O)Cc1cccs1)CC2", "assay target": "Plasmodium berghei", "class": "1 (yes)"}
{"compound": "CC(C)C(=O)NCc1cccc(N2CCCCC2=O)c1", "assay target": "Plasmodium berghei", "class": "0 (no)"}
{"compound": "Cc1ccc(CN2CCc3c(C(=O)N(C)C)nn(C)c3C2)s1", "assay target": "Plasmodium berghei", "class": "0 (no)"}
{"compound": "Cn1cc(-c2cnc3n2CCC32CCN(S(C)(=O)=O)CC2)cn1", "assay target": "Plasmodium berghei", "class": "0 (no)"}
